B1: library; a variant is named by its letters at N, in order (parent)
chain: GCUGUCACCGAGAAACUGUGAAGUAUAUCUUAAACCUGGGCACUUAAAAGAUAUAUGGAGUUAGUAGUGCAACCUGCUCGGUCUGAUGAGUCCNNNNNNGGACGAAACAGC

- Variants of: B1
- protocolSummary: normalized RNA/DNA level without ligand (relative to sTRSVctl = 100) (log10 (% of sTRSVctl)); HEK293T; ligand: cyclic di-GMP (c-di-GMP-II aptamer); higher = less ribozyme self-cleavage, higher mRNA level
- assayConditions: reporter: mCherry (pCS4076), ligand present: no
reportedEndpoint: normalized RNA/DNA level without ligand (log10)
Answer field: number only, no words.

mutation: CACUCC
numericResult: 1.74

Memo: AAAAUC , reported normalized RNA/DNA level without ligand (log10): 1.62

Memo: GAAUUA , reported normalized RNA/DNA level without ligand (log10): 1.55

Memo: CAGAUA , reported normalized RNA/DNA level without ligand (log10): 1.23

Memo: UAUGCG , reported normalized RNA/DNA level without ligand (log10): 1.78

Memo: UAUUCC , reported normalized RNA/DNA level without ligand (log10): 1.77

Memo: ACCACA , reported normalized RNA/DNA level without ligand (log10): 1.6

Memo: AUGAUA , reported normalized RNA/DNA level without ligand (log10): 1.53

Memo: CGCUGC , reported normalized RNA/DNA level without ligand (log10): 1.81

Memo: GGCUGG , reported normalized RNA/DNA level without ligand (log10): 1.75

Source listed as the supplement of paper PMC6757056.
